Test system: LOX IMVI melanoma
assay.protocol: NCI tumour cell line growth inhibition, 48 h
attribute.measured: TGI

molecule=Cc1nc(CN2CCCCC2)c(O)c(=O)[nH]1 attribute_measured=TGI experimental_result="> 100 µM"
molecule=COc1cc(C(=O)O[C@@H]2[C@@H](OC(=O)c3cc(OC)c(OC)c(OC)c3)[C@@H](OC)O[C@@H]3CO[C@@H](c4ccccc4)O[C@@H]23)cc(OC)c1OC attribute_measured=TGI experimental_result="> 100 µM"
molecule=O=C1NC(N2CCCCC2)=N/C1=C\c1cccs1 attribute_measured=TGI experimental_result="> 100 µM"
molecule=O=C1C=CC2=[N+]([O-])C(c3ccccc3)(c3ccccc3)C(=Nc3ccccc3)C2=C1 attribute_measured=TGI experimental_result="3.74 µM"
molecule=CS(=O)(=O)CCNCc1ccc(-c2ccc3ncnc(Nc4ccc(OCc5cccc(F)c5)c(C(F)(F)F)c4)c3c2)o1 attribute_measured=TGI experimental_result="8.13 µM"
molecule=NCCN.NCCN.O=C[O-].O=C[O-].[Co+3].[O-][Cl+3]([O-])([O-])[O-] attribute_measured=TGI experimental_result="> 100 µM"
molecule=CN1CCN(c2cc(C(=O)Nc3cc4cc(-c5cnn(C)c5)ccc4cn3)ccn2)CC1 attribute_measured=TGI experimental_result="0.262 µM"
molecule=CC1(C)CC23CC(C)(C)c4cccc(c42)OCc2ccc4ccc5ccc(nc5c4n2)COc2cccc1c23 attribute_measured=TGI experimental_result="> 50 µM"
molecule=COc1cc(O)c2c(c1)C(=O)C=C(Cl)C2=O attribute_measured=TGI experimental_result="> 100 µM"
molecule=CC(C)(C)OC(=O)N(O)CCCn1cnc2c(N)ncnc21 attribute_measured=TGI experimental_result="> 100 µM"
molecule=CC1=C(C(=O)NCc2ccccc2)C(c2ccc([N+](=O)[O-])cc2)C(C(=O)NCc2ccccc2)=C(C)N1 attribute_measured=TGI experimental_result="44.1 µM"
molecule=S=P1(N2CCCCC2)Oc2ccc3ccccc3c2-c2c(ccc3ccccc23)O1 attribute_measured=TGI experimental_result="> 100 µM"
molecule="COc1cc2c(cc1OC)C(OC)N(C)c1c-2ccc2cc3c(cc12)OCO3 (stereo not given)" attribute_measured=TGI experimental_result="> 32.8 µM"
molecule=O=C(N/N=C/c1ccc([N+](=O)[O-])o1)c1ccc(C(=O)N/N=C/c2ccc([N+](=O)[O-])o2)cc1 attribute_measured=TGI experimental_result="94.9 µM"
molecule=CCOC(=O)Cc1csc2[n+]1C(=O)/C(=C\c1cccc(Cl)c1Cl)S2 attribute_measured=TGI experimental_result="42.2 µM"
molecule="Cc1ccc(C2NC(=O)c3ccccc3N2)s1 (stereo not given)" attribute_measured=TGI experimental_result="> 100 µM"
molecule=CCCCOC(=O)NC(Nc1cccc(C(F)(F)F)c1)(C(F)(F)F)C(F)(F)F attribute_measured=TGI experimental_result="> 100 µM"
molecule=CCCCCCCC/C=C\CCCCCCCC(=O)O attribute_measured=TGI experimental_result="239 µM"
molecule=Cc1ccc(S(=O)(=O)N2C[C@](O)(c3ccccc3)[C@H]2C)cc1 attribute_measured=TGI experimental_result="> 100 µM"
molecule=O=C(/C=N/O)Nc1cc(Cl)c(Cl)cc1Cl attribute_measured=TGI experimental_result="> 100 µM"

meta.source: PubChem BioAssay (NCI)
